Kindly state pIC50 for each of the entries shown.
molecular target: Ras farnesyl transferase (Homo sapiens, UniProt P49354+P49356); construct: made in house; experiment: In vitro inhibitory activity for Ras farnesyl transferase, K-Ras substrate; assay type: biochemical; settings: in vitro farnesyl transferase assay, K-Ras; read-out: K-Ras IC50
Answers are plain numbers, as −log10 of the molar value.

For each entry beneath this line, provide reported pIC50.
1. CC(C)C[C@H](NC(=O)c1cn(Cc2cncn2Cc2ccc(C#N)cc2)cc1-c1cccc2ccccc12)C(=O)O
2. O=C(c1cn(Cc2cncn2Cc2ccc(Br)cc2)cc1-c1cccc2ccccc12)N1CCOCC1
3. CN1CCN(C(=O)c2cn(Cc3cncn3CCc3ccc(F)cc3)cc2-c2cccc3ccccc23)CC1
4. CN1CCN(C(=O)c2cn(Cc3cncn3Cc3ccc4ccccc4c3)cc2-c2cccc3ccccc23)CC1

Reply:
[5.77, 8.22, 8.70, 8.40]
